Measured growth of individual entries
- System: UACC-257 melanoma
- Protocol description: NCI-60 one-dose screen, 48 h (100 = growth as untreated, 0 = no growth, -100 = all killed)
- Study conditions: 10 µM unless noted
The panel holds about 83,000 compounds, 20% with a hit somewhere; the sample as a whole holds those more often.
Report only the number, with the unit % understood.

Reference set (4 entries):
INPUT: // returns reported growth for input CCOC(=O)c1ccc[nH]1
OUTPUT: 90.8

INPUT: // returns reported growth for input N=C(N)c1ccc(-c2ccc(-c3ccccc3)o2)o1
OUTPUT: 69.3

INPUT: // returns reported growth for input C[C@@H]1CN(c2cnc(C(=O)Nc3cc(F)cc4cccnc34)cn2)C[C@H](C)N1
OUTPUT: 41.4

INPUT: // returns reported growth for input CCN1CCN(CCNc2nccc(-c3c(-c4ccc(F)c(O)c4)nc4occn34)n2)S1(=O)=O
OUTPUT: 43.6

Consider the additional compound presented here.
INPUT: // returns reported growth for input CCCCCc1ccc(S(=O)(=O)Nc2cc(-c3csc(NC(C)=O)n3)ccc2N2CCN(C)CC2)cc1
OUTPUT: -21.9
